molecular target: Adrenergic receptor alpha-2 (Rattus norvegicus) (UniProt P22086+P19328+P22909); assay: Reversal of medetomidine-induced loss of righting reflex in sc dosed Wistar rat after 1hr; format: functional, organism-based
Kindly apply the following: 1 if ED50 is less than 0.1 mg/kg, -1 in every other case.

Worked cases, answers included:
compound	measured on	category label
COc1cc2c(cc1OC)C1=NO[C@@H](CN3CCN(C/C(C)=C/c4ccc(F)cc4)CC3)[C@@H]1CO2 (stereo in doubt; form 2)	Adrenergic receptor alpha-2 (Rattus norvegicus) (UniProt P22086+P19328+P22909)	-1
COc1cc2c(cc1OC)C1=NOC(CN3CCN(C/C(C)=C/c4ccccc4)CC3)C1CN2 (single isomer, unassigned; (-))	Adrenergic receptor alpha-2 (Rattus norvegicus) (UniProt P22086+P19328+P22909)	-1
COc1cc2c(cc1OC)C1=NOC(CN3CCN(C/C(C)=C/c4ccccc4)CC3)C1CN2 (racemic)	Adrenergic receptor alpha-2 (Rattus norvegicus) (UniProt P22086+P19328+P22909)	-1
COc1cc2c(cc1OC)C1=NOC(CN3CCN(C/C(C)=C/c4ccccc4)CC3)C1CN2 (single isomer, unassigned; (+))	Adrenergic receptor alpha-2 (Rattus norvegicus) (UniProt P22086+P19328+P22909)	1
COc1cc2c(cc1OC)C1=NOC(CN3CCN(C/C=C/c4ccc(F)cc4)CC3)C1CO2 (single isomer, unassigned; (+))	Adrenergic receptor alpha-2 (Rattus norvegicus) (UniProt P22086+P19328+P22909)	-1

Incoming: Quick check: ED50 of COc1cc2c(cc1OC)C1=NO[C@@H](CN3CCN(C/C(C)=C/c4ccc(F)cc4)CC3)[C@@H]1CO2 (stereo in doubt; form 1) under 0.1 mg/kg?
Outgoing: -1

---

Assign ED50 to each entry below.
molecular target: Sodium-dependent serotonin transporter (Rattus norvegicus) (UniProt P31652); experiment: Antagonism of p-chloroamphetamine-induced excitation in sc dosed Wistar rat after 1 hr; type: functional, organism-based
Sequence (P31652 whole entry): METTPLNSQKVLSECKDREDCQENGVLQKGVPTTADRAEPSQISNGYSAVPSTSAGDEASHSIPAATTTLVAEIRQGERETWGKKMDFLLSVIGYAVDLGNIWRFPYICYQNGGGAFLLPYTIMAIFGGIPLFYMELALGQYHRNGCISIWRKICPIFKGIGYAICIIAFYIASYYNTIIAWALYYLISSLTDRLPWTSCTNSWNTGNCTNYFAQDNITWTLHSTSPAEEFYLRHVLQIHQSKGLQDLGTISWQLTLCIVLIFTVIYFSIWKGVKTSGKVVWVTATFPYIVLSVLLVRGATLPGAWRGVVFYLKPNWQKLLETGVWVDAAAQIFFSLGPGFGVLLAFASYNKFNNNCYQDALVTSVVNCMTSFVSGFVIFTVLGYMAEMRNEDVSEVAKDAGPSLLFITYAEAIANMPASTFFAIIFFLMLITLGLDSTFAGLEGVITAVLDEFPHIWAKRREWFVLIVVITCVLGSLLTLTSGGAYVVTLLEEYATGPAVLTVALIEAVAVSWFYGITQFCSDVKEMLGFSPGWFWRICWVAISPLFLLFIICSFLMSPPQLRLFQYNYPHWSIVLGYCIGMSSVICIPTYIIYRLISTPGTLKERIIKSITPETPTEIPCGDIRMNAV
Give bare numbers, in mg/kg.

Use the examples below as a reference point.
molecule	readout value
COc1cc2c(cc1OC)C1=NOC(CN3CCN(C/C(C)=C/c4ccccc4)CC3)C1CN2 (racemic)	2.2
COc1cc2c(cc1OC)C1=NOC(CN3CCN(C/C=C/c4ccc(F)cc4)CC3)C1CO2 (racemic)	4.7

Record ED50 for all entries; do not skip any.
1. COc1cc2c(cc1OC)C1=NOC(CN3CCN(C/C=C/c4ccc(F)cc4)CC3)C1CO2 (single isomer, unassigned; (+))
2. COc1cc2c(cc1OC)C1=NOC(CN3CCN(C/C(C)=C/c4ccccc4)CC3)C1CN2 (single isomer, unassigned; (-))

Outgoing:
0.05
0.32

---

Assign pKi to each entry below.
target: Alpha-2C adrenergic receptor (Homo sapiens); test: Displacement of [3H]rawolscine from human cloned adrenergic Alpha-2C receptor transfected in CHO cells
Sequence (P18825 whole entry): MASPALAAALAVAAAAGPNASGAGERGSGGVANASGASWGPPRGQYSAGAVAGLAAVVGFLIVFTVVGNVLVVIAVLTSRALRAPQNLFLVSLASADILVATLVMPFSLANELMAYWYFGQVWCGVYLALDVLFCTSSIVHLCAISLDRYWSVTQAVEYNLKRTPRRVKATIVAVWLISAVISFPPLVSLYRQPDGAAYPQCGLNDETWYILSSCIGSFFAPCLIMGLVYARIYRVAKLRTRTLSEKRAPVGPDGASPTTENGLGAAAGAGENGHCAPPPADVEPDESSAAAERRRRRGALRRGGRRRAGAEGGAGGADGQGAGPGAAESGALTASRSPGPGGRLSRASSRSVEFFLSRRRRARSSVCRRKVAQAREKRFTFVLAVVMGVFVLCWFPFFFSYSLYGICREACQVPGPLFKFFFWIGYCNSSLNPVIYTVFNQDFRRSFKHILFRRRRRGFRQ
Numbers only, as −log10 of the molar value.

Use the examples below as a reference point.
molecule	measured on	pKi
COc1cc2c(cc1OC)C1=NOC(CN3CCN(C/C(C)=C/c4ccccc4)CC3)C1CN2 (single isomer, unassigned; (+))	Alpha-2C adrenergic receptor (Homo sapiens)	9.03
COc1cc2c(cc1OC)C1=NO[C@@H](CN3CCN(C/C(C)=C/c4ccc(F)cc4)CC3)[C@@H]1CO2 (stereo in doubt; form 1)	Alpha-2C adrenergic receptor (Homo sapiens)	9.57
COc1cc2c(cc1OC)C1=NOC(CN3CCN(C/C=C/c4ccc(F)cc4)CC3)C1CO2 (cis isomer)	Alpha-2C adrenergic receptor (Homo sapiens)	7.14
COc1cc2c(cc1OC)C1=NOC(CN3CCN(C/C(C)=C/c4ccccc4)CC3)C1CN2 (racemic)	Alpha-2C adrenergic receptor (Homo sapiens)	10.00
COc1cc2c(cc1OC)C1=NOC(CN3CCN(C/C=C/c4ccc(F)cc4)CC3)C1CO2 (single isomer, unassigned; (+))	Alpha-2C adrenergic receptor (Homo sapiens)	8.35

Record pKi for all entries; do not skip any.
1. COc1cc2c(cc1OC)C1=NOC(CN3CCN(C/C=C/c4ccc(F)cc4)CC3)C1CO2 (racemic)
2. COc1cc2c(cc1OC)C1=NOC(CN3CCN(C/C(C)=C/c4ccccc4)CC3)C1CN2 (single isomer, unassigned; (-))
3. COc1cc2c(cc1OC)C1=NO[C@@H](CN3CCN(C/C(C)=C/c4ccc(F)cc4)CC3)[C@@H]1CO2 (stereo in doubt; form 2)

Outgoing:
1. 7.64
2. 8.08
3. 8.00
